Assay: Solubility determinations of crystalline forms of racemic eperisone in water
Format: physicochemical
Details: HPLC-grade water; slurry on rotating wheel 46.5 hours at ambient temperature (about 19° C.); filtrate dried and weighed
Structures can show the parent of a compound that is named as a salt.
Listed molecules paired with reported Solubility
quantity: Solubility (mg/mL)

                                   molecule  unit_label  modifier  result_value
0  CCc1ccc(C(=O)C(C)CN2CCCCC2)cc1 (racemic) [Hydrochloride, reference compound]       mg/mL         =         210.7
1  CCc1ccc(C(=O)C(C)CN2CCCCC2)cc1 (racemic) [Maleate]       mg/mL         =          20.7
2  CCc1ccc(C(=O)C(C)CN2CCCCC2)cc1 (racemic) [Succinate]       mg/mL         =         114.7
3  CCc1ccc(C(=O)C(C)CN2CCCCC2)cc1 (racemic) [Mesylate]       mg/mL         >         392.2
4  CCc1ccc(C(=O)C(C)CN2CCCCC2)cc1 (racemic) [Fumarate]       mg/mL         =          16.8
